- studySystem: T1, human plasma kallikrein (human, UniProt P03952 20-390; P03952 391-638)
- T1 construct: two disulfide-linked chains; also called pKal; human pKal
- T1 sequence (P03952 20-390, chain 1 of 2): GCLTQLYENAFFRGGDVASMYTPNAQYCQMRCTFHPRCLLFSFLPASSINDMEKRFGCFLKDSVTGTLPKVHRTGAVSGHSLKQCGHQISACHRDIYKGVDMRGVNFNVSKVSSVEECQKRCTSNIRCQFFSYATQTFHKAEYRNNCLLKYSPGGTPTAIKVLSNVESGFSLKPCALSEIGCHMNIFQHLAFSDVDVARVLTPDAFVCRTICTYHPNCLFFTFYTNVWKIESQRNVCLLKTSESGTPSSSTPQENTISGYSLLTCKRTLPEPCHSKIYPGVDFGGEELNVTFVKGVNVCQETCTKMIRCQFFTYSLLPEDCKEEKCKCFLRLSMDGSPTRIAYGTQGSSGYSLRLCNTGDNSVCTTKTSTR
- T1 sequence (P03952 391-638, chain 2 of 2): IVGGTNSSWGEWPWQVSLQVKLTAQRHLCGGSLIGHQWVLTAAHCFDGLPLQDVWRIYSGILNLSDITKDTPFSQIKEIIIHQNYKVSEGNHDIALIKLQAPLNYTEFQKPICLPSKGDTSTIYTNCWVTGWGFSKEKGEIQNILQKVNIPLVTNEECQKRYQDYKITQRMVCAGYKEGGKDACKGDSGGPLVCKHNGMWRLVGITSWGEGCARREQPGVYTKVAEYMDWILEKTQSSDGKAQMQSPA
- assayNotes: Ki,app, inhibition of human pKal enzyme activity
propertyLabel: Ki (nM)
Give bare numbers, in nM.

# binder, Ki, nM
measured = [
    ("M201-A07 (Fab, V domains shown, Tested as Fab; printed HC runs into CH1) VH: EVQLLESGGGLVQPGGSLRLSCAASGFTFSHYIMMWVRQAPGKGLEWVSGIYSSGGITVYADSVKGRFTISRDNSKNTLYLQMNSLRAEDTAVYYCAYRRTGVPRRDEFDIWGQGTMVTVSS VL: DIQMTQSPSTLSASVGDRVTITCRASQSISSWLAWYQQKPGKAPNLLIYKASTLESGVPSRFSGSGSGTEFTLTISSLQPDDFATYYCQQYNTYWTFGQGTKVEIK", 0.1),
    ("M198-D12 (Fab, V domains shown, Tested as Fab; printed HC runs into CH1) VH: EVQLLESGGGLVQPGGSLRLSCAASGFTFSLYVMYWVRQAPGKGLEWVSYIVPSGGPTAYADSVKGRFTISRDNSKNTLYLQMNSLRAEDTAVYYCAYRRTGIPRRDAFDIWGQGTMVTVSS VL: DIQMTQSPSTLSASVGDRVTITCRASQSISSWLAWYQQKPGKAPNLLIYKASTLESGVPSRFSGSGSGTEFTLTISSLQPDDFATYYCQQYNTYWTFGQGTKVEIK", 0.7),
    ("M199-A08 (Fab, V domains shown) VH: EVQLLESGGGLVQPGGSLRLSCAASGFTFSHYIMMWVRQAPGKGLEWVSGIYSSGGITVYADSVKGRFTISRDNSKNTLYLQMNSLRAEDTAVYYCAYRRIGVPRRDEFDIWGQGTMVTVSS VL: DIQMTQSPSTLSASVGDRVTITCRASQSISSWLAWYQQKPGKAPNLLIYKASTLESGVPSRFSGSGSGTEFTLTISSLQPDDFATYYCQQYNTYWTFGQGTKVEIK", 0.06),
    ("M202-D09 (Fab, V domains shown, Tested as Fab; printed HC runs into CH1) VH: EVQLLESGGGLVQPGGSLRLSCAASGFTFSHYIMMWVRQAPGKGLEWVSGIYSSGGITVYADSVKGRFTISRDNSKNTLYLQMNSLRAEDTAVYYCAYRRIGVPRRDSFDIWGQGTMVTVSS VL: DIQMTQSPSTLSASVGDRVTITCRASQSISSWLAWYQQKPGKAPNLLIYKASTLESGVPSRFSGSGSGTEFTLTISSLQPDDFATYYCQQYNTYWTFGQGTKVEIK", 0.4),
]

With those in mind, consider the next binder.
Problem: What value of measured Ki is listed for M202-H03 (Fab, V domains shown, Tested as Fab; printed HC runs into CH1; Same CDRs as M202-C01, differs at the residue before HV-CDR3 (F for Y)) VH: EVQLLESGGGLVQPGGSLRLSCAASGFTFSHYIMMWVRQAPGKGLEWVSGIYSSGGITVYADSVKGRFTISRDNSKNTLYLQMNSLRAEDTAVYYCAFRRTGVPRWDDFDIWGQGTMVTVSS VL: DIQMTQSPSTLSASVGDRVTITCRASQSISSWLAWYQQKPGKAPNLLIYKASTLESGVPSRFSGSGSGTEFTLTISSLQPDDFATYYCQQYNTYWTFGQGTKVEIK ?
Solution: 0.1
